Test system: BT-549 breast
Assay: NCI tumour cell line growth inhibition, 48 h; in the data active = GI50 below about 0.43 µM; inactive = the rest
Classes used: active, inactive

compound: CC1CC2(C)ON=C(c3ccccc3)N2c2ccccc2S1 (stereo not drawn)
measurement.target: BT-549 breast
label: inactive

compound: N#C/C(=C\c1ccc(-c2ccc(Cl)cc2)o1)C(=O)Nc1ncc(Cc2ccc(Cl)cc2)s1
measurement.target: BT-549 breast
label: inactive

compound: COc1cc2c3c(n(CCCCOC(=O)C(F)(F)F)c(=O)c2cc1OC)-c1cc2c(cc1C3=O)OCO2
measurement.target: BT-549 breast
label: inactive

compound: Oc1ccccc1-c1nn(CNc2cccc(Cl)c2)c(=S)o1
measurement.target: BT-549 breast
label: inactive

compound: CC(C)(C)NC(C1=CC(C)(C)c2ccccc2C1=O)c1ccccc1 (stereo not drawn)
measurement.target: BT-549 breast
label: inactive

compound: Cn1nccc1Nc1nccc(-c2cc3c(s2)C(C)(C)N(CCN2CCOCC2)C3=O)n1
measurement.target: BT-549 breast
label: inactive

compound: CC1=C(C(=O)Nc2ccc(F)c(Cl)c2)C(c2ccccc2Cl)NC(=S)N1 (stereo not drawn)
measurement.target: BT-549 breast
label: inactive

compound: COc1cc(C(=O)c2ccc3c(c2)OCO3)cc(OC)c1OC
measurement.target: BT-549 breast
label: inactive

compound: CC(=O)N1N=C2/C(=C/c3ccccc3)CC(C)CC2C1c1ccccc1 (stereo not drawn)
measurement.target: BT-549 breast
label: inactive

compound: C[n+]1c(/C=C\c2ccc(Cl)cc2)ccc2ccccc21
measurement.target: BT-549 breast
label: inactive

compound: C=C1C(=O)O[C@H]2[C@H]1CC/C(COC(=O)CCCCC(=O)OC/C1=C/CC[C@@]3(C)O[C@H]3[C@H]3OC(=O)C(=C)[C@@H]3CC1)=C\CC[C@@]1(C)O[C@@H]21
measurement.target: BT-549 breast
label: inactive

compound: CCCCCCCCCCCCCC(=O)O[C@H]1CC[C@H](NC(=O)[C@H](OC)[C@H](O)[C@@H](O)[C@H](O)/C=C/C(C)C)C(=O)NC1
measurement.target: BT-549 breast
label: inactive

compound: CC[C@H](C)[C@H]1NC(=O)[C@@H](N[C@](C)(O)[C@@H](N)CC(C)C)[C@@H](C)OC(=O)[C@H](Cc2ccc(OC)cc2)N(C)C(=O)[C@@H]2CCCN2C(=O)[C@H](CC(C)C)NC(=O)[C@@H](C)C(=O)[C@H](C(C)C)OC(=O)C[C@@H]1O
measurement.target: BT-549 breast
label: active

---

Test system: MOLT-4 leukemia
Assay: NCI tumour cell line growth inhibition, 48 h

sample.smiles: O=c1c2cccc(Cl)c2sc2c(NCCCNCCO)nc3ccccc3c12
GI50: 2.12 µM

sample.smiles: Cn1cc(C2=C(c3cccc4ccccc34)C(=O)NC2=O)c2ccccc21
GI50: 7.9 µM

sample.smiles: Cn1cc(-c2nc(-c3c[nH]c4ncccc34)cs2)c2cc(F)ccc21
GI50: 3.16 µM

sample.smiles: COc1ccccc1OCC(=O)Nc1sc2c(c1C(N)=O)CCC2
GI50: > 100 µM

sample.smiles: CC(=O)[CH-]C(=O)c1ccccc1.CC(=O)[CH-]C(=O)c1ccccc1.CC[O-].CC[O-].[Zr+4]
GI50: > 100 µM

sample.smiles: O=C(CN1CCN(c2ncnc3ccccc23)CC1)Nc1ccc(Cl)cc1C(=O)c1ccccc1Cl
GI50: 0.472 µM

---

Test system: HCT-15 colon
Experiment: NCI tumour cell line growth inhibition, 48 h
measure.name: TGI (µM)

compound: COc1ccc(N2C(=O)C3c4[nH]c5ccc(OC)cc5c4C4CCC(C(C)(C)C)CC4C3C2=O)cc1 (stereo unspecified)
endpoint.unit: µM
readout.relation: >
assay.result: 100
--
compound: C/C(=N\NS(=O)(=O)c1ccc(C)cc1)C(CN1CCOCC1)C(c1ccccc1)c1c(O)c2ccccc2oc1=O (stereo unspecified)
endpoint.unit: µM
readout.relation: >
assay.result: 100
--
compound: O=C1/C(=C/c2cccnc2)C(n2cccc2)c2c(Br)sc(Br)c21 (stereo unspecified)
endpoint.unit: µM
readout.relation: =
assay.result: 4.96
--
compound: CC1(c2ccc(F)cc2)CC(c2ccc(F)cc2)=C(C#N)C(=C(C#N)C#N)N1 (stereo unspecified)
endpoint.unit: µM
readout.relation: =
assay.result: 31.7
--
compound: COc1ccc(C(=O)C(c2ccc(OC)cc2)C2(O)C(=O)Nc3ccccc32)cc1 (stereo unspecified)
endpoint.unit: µM
readout.relation: >
assay.result: 100
--
compound: O=c1cc(-c2ccccc2)[nH]c2cc(F)c(F)cc12
endpoint.unit: µM
readout.relation: >
assay.result: 100
--
compound: CCC[CH2][Sn]1([CH2]CCC)[O]C(=O)c2cc(I)cc(I)c2[O]1
endpoint.unit: µM
readout.relation: =
assay.result: 2.93
--
compound: COc1ccc(C(=O)OCC2OC(n3cnc4c(=S)nc[nH]c43)C(OC(=O)c3ccc(OC)cc3)C2OC(=O)c2ccc(OC)cc2)cc1 (stereo unspecified)
endpoint.unit: µM
readout.relation: >
assay.result: 100
--
compound: Cc1ccc(CC(=O)Nc2ccc(NC(=O)/C=C/NC(=O)/C=C/c3ccc(-c4ccccc4)cc3)cc2C(=O)c2ccccc2)cc1
endpoint.unit: µM
readout.relation: =
assay.result: 9.53
--
compound: O=C1/C(=C\c2ccc(Cl)cc2Cl)Sc2scc(-c3cccc([N+](=O)[O-])c3)[n+]21
endpoint.unit: µM
readout.relation: =
assay.result: 4.87
--
compound: OC12c3ccccc3C1(N1CCOCC1)CCCCC21OCCCO1 (stereo unspecified)
endpoint.unit: µM
readout.relation: >
assay.result: 100

---

Test system: NCI-H522 lung
Assay: NCI tumour cell line growth inhibition, 48 h

compound: Cc1ccc(S(=O)(=O)N2CC3OC(C)(C)OC3C2CO)cc1 (stereo not drawn)
TGI: > 100 µM

compound: CC1=NN(C(=O)CC(=O)Nc2ccccc2C)C(=O)C1N=Nc1ccc(C(=O)O)cc1 (stereo not drawn)
TGI: > 100 µM

compound: CC(=O)OC1CCN(C(=O)c2ccccc2)CC1CC1(c2cc3ccccc3[nH]2)OCCO1 (stereo not drawn)
TGI: > 100 µM

---

Consider the following molecules and their measured TGI readings.
Test system: HCC-2998 colon
Test: NCI tumour cell line growth inhibition, 48 h

molecule: C=CCCCC1CCCNC1=O (configuration not stated)
TGI: > 100 µM
//
molecule: C1=Cc2ccccc2Nc2ccccc21
TGI: > 100 µM
//
molecule: O=S1(=O)OCCOS(=O)(=O)C1I
TGI: > 100 µM
//
molecule: CC1(c2ccc(F)cc2)CC(c2ccc(F)cc2)=C(C#N)C(=C(C#N)C#N)N1 (configuration not stated)
TGI: 28.2 µM
//
molecule: COC(=O)c1ccc(OCc2ccc3nc(OC)c(OC)nc3c2)cc1
TGI: > 100 µM
//
molecule: COc1ccc2nc(-c3cc(-c4cc(OC)c(OC)c(OC)c4)n[nH]3)[nH]c2c1
TGI: 10.6 µM
//
molecule: O=C(O)C(CP(=O)(O)O)=C(Cl)Cl
TGI: > 100 µM
//
molecule: Cc1[nH]c2ccccc2c1C1Cc2ccccc2N1C(=O)/C=C/C=C/c1ccccc1 (configuration not stated)
TGI: > 100 µM
//
molecule: CC1=CC(=NC(=O)CBr)C=C/C1=N\S(=O)(=O)c1ccccc1
TGI: 31.3 µM
//
molecule: C[C@@H]1CN(C(=O)c2ccc(NC(=O)c3cc(O[C@H](C)c4c(Cl)ccc(F)c4Cl)c(N)nn3)cc2)C[C@H](C)N1
TGI: 29.1 µM
//
molecule: Cn1cc(C2=C(c3cccc4ccccc34)C(=O)NC2=O)c2ccccc21
TGI: > 25 µM
//
molecule: CCCN(CCCCC(NC(C)=O)C(=O)NCc1ccccc1)C(=O)N(C)N=O (configuration not stated)
TGI: > 100 µM
//
molecule: CN(C)CCNC(=O)c1cc2ccccc2c2nc3ccccc3nc12
TGI: 3.92 µM
//
molecule: CCOc1c(Br)cc(C2C(C(=O)OC)=CN(C)C=C2C(=O)OC)cc1OC
TGI: > 100 µM
//
molecule: O=C1/C(=C/C=C/c2ccccc2)N=C(c2ccccc2)N1C1Nc2cc3c(cc2S1)NC(N1C(=O)/C(=C/C=C/c2ccccc2)N=C1c1ccccc1)S3 (configuration not stated)
TGI: 37.2 µM
//
molecule: CN1C(=O)c2ccccc2NC(=O)c2cnn(C)c21
TGI: > 100 µM
//
molecule: CCOC(=O)/C(=C\c1ccc(O)c(OC)c1)C(=O)c1ccccc1
TGI: 38.1 µM
//
molecule: Cc1ccccc1C1CC(=O)CC(c2ccccc2C)C12C(=O)NC(=O)NC2=O (configuration not stated)
TGI: > 100 µM
//
molecule: CN(C)c1ccc(-c2cc(=O)c3cc4c(cc3[nH]2)OCO4)cc1
TGI: > 100 µM
//
molecule: CN(NC(=O)c1ccco1)C1=NCCN1
TGI: > 100 µM
//
molecule: CCOC(C)C(/C=N/NC(N)=S)=NNC(N)=S (configuration not stated)
TGI: > 100 µM
//
molecule: COC(OC)C1OC(CO)C(n2cc(C)c(=O)[nH]c2=O)C1O (configuration not stated)
TGI: > 100 µM
